Measured target: PLK2 (Homo sapiens, UniProt Q9NYY3)
Sequence (Q9NYY3 whole entry): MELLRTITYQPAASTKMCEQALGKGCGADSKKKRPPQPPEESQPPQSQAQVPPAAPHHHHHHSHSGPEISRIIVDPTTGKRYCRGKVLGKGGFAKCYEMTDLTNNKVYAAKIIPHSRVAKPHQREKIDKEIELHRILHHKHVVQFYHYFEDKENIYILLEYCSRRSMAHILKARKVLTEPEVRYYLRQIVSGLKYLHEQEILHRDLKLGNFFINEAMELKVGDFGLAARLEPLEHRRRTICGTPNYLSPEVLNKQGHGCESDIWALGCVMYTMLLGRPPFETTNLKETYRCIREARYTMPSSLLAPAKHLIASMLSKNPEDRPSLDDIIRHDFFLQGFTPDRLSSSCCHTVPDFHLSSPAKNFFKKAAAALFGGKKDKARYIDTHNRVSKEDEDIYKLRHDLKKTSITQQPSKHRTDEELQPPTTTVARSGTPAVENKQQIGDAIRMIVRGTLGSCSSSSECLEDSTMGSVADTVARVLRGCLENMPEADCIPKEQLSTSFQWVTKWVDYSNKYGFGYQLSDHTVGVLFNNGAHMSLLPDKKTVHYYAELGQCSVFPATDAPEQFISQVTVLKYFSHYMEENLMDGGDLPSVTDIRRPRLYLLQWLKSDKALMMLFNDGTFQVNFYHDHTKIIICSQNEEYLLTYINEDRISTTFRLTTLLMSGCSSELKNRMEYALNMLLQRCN
pIC50: −log10 of the molar value.

Molecule | Measured target | pIC50
CC(=O)Nc1nccc(-c2ccc3c(/C=C/c4ccc(CN(C)C)cc4)n[nH]c3c2)n1 [YLT-11] | PLK2 (Homo sapiens, UniProt Q9NYY3) | 5.24

---

Measured target: TTBK1 (Homo sapiens)
Sequence (Q5TCY1 whole entry): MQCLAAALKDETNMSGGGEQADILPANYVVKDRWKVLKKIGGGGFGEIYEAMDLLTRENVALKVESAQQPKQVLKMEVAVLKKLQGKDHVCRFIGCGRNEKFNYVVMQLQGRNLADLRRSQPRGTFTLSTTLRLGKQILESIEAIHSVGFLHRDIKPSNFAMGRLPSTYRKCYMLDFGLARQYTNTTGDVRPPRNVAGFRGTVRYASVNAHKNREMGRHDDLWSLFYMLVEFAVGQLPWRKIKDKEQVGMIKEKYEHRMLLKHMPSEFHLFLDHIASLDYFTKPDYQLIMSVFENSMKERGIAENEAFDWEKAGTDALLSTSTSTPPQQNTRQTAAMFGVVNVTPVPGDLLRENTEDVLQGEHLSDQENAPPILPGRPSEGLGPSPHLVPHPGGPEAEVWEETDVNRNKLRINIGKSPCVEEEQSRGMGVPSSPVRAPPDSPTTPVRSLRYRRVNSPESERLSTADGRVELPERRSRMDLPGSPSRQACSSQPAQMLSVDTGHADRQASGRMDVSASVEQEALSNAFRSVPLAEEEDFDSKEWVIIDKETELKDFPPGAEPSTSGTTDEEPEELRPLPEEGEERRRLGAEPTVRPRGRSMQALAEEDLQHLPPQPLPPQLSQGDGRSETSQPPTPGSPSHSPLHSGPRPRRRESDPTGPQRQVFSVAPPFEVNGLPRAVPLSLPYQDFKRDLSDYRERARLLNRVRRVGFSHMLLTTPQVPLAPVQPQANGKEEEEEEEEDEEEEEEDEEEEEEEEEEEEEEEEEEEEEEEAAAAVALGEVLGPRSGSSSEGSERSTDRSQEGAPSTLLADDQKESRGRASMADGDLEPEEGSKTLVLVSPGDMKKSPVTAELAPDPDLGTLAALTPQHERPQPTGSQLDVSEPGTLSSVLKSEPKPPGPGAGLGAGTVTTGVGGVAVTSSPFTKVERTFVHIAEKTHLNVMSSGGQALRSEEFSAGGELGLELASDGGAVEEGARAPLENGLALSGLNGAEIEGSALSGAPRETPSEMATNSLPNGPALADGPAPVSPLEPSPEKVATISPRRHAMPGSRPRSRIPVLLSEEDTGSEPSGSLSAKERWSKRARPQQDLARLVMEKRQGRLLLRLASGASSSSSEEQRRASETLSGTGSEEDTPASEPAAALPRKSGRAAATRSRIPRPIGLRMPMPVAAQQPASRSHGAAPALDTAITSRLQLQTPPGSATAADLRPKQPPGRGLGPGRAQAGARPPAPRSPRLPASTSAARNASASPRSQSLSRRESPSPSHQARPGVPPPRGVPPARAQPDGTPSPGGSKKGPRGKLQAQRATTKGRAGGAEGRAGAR
Protocol notes: kinase activity in vitro
Type: biochemical
Measurement label: IC50 (µM)

Line notation | Unit string | Recorded result
CC(=O)Nc1nccc(-c2ccc3c(/C=C/c4ccc(CN(C)C)cc4)n[nH]c3c2)n1 | µM | 56.7

---

System: MDA-MB-435
Protocol notes: cells
Setup conditions: Homo sapiens, MDA-MB-435, read-out: IC50 proliferation
Measurement label: IC50 (nM)

Line notation | Measured target | Unit string | Recorded result
CC(=O)Nc1nccc(-c2ccc3c(/C=C/c4ccc(CN(C)C)cc4)n[nH]c3c2)n1 | MDA-MB-435 | nM | 154

---

Measured target: UniProt:O14965
Sequence (O14965 1-403): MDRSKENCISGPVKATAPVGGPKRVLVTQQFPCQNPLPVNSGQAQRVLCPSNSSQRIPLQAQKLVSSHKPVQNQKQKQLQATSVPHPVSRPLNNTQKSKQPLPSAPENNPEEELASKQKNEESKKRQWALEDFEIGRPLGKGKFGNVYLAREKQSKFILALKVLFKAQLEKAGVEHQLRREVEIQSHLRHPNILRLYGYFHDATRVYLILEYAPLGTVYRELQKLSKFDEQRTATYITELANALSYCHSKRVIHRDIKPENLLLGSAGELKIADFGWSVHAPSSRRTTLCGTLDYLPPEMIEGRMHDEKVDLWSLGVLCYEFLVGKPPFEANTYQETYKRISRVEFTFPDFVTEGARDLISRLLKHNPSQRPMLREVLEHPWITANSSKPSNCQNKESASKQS
pIC50: −log10 of the molar value.
Measurement label: pIC50

Compound | Measurement label | Recorded result
CC(=O)Nc1nccc(-c2ccc3c(/C=C/c4ccc(CN(C)C)cc4)n[nH]c3c2)n1 [YLT-11] | pIC50 | 6.33

---

Measured target: PLK3 (Homo sapiens)
Sequence (Q9H4B4 whole entry): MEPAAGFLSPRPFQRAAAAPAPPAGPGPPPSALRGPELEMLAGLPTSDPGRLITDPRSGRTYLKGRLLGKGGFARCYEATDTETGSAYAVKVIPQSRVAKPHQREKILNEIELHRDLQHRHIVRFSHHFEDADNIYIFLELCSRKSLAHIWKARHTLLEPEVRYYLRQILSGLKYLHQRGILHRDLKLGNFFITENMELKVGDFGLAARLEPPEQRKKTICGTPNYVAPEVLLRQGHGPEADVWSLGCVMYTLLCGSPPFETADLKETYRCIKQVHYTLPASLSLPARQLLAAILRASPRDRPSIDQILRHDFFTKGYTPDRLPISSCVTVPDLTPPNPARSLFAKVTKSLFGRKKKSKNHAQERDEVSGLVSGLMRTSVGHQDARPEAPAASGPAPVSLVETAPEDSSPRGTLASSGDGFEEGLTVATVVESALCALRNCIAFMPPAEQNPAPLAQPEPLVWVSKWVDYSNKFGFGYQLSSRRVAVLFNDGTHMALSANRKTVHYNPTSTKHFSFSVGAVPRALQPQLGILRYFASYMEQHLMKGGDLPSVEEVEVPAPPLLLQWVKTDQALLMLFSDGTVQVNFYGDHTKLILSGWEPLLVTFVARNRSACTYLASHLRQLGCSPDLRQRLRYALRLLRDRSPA
pKd: −log10 of the molar value.
Measurement label: pKd

Line notation | Measured target | Measurement label | Recorded result
CC(=O)Nc1nccc(-c2ccc3c(/C=C/c4ccc(CN(C)C)cc4)n[nH]c3c2)n1 | PLK3 (Homo sapiens) | pKd | < 5.00

---

Measured target: NEK2 (Homo sapiens, UniProt P51955)
Sequence (P51955 whole entry): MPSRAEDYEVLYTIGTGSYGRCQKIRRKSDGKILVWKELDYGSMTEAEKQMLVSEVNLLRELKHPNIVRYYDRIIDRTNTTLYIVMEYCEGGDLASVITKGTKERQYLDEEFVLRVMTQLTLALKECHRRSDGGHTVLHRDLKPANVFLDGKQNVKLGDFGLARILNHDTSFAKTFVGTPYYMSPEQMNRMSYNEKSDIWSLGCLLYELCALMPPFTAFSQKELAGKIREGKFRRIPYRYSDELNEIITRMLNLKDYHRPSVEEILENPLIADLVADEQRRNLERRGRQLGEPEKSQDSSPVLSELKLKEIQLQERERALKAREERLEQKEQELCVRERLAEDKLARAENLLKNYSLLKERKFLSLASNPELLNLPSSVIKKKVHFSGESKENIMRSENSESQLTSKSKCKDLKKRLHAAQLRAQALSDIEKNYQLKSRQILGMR

Line notation | Measured target | Unit string | IC50
CC(=O)Nc1nccc(-c2ccc3c(/C=C/c4ccc(CN(C)C)cc4)n[nH]c3c2)n1 | NEK2 (Homo sapiens, UniProt P51955) | nM | 332

---

Measured target: PLK2 (Homo sapiens)

Line notation | Kd / nM
CC(=O)Nc1nccc(-c2ccc3c(/C=C/c4ccc(CN(C)C)cc4)n[nH]c3c2)n1 | 653

---

Measured target: ERBB2/HER2 (Homo sapiens)
Sequence (P04626 23-1255): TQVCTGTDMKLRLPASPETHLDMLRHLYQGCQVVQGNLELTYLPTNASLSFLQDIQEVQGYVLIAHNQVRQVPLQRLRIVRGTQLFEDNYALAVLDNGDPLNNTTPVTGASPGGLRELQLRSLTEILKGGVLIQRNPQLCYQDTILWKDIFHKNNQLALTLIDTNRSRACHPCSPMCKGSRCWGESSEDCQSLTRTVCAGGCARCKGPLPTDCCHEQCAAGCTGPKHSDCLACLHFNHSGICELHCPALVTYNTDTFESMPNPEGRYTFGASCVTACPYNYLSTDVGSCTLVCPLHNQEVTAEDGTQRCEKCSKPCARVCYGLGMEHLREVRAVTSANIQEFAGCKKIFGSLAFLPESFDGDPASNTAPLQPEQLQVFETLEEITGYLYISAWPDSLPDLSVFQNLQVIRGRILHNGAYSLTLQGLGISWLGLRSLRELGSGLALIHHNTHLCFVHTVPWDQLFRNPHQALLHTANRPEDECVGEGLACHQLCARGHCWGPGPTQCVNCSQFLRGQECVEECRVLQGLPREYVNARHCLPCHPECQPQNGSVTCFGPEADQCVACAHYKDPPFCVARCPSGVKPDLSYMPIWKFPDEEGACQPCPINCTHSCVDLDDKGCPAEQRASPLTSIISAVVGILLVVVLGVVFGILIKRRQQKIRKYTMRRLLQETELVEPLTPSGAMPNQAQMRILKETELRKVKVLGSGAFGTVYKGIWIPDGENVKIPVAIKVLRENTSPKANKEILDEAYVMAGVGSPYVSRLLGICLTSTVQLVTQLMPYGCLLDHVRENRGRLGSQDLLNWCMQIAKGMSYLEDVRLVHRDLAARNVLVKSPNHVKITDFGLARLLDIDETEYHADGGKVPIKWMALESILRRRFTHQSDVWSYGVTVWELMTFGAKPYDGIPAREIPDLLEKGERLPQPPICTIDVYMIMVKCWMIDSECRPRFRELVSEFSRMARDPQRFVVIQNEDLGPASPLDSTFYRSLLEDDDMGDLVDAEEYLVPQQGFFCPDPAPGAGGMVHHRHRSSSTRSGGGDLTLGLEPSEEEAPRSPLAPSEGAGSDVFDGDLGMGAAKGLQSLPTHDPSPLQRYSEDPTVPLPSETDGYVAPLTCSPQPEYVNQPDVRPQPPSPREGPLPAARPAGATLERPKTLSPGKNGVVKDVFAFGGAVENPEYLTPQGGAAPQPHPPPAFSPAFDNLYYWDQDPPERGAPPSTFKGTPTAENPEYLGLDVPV
Protocol notes: kinase activity in vitro

Compound | IC50 (µM)
CC(=O)Nc1nccc(-c2ccc3c(/C=C/c4ccc(CN(C)C)cc4)n[nH]c3c2)n1 [YLT-11] | 0.539

The measurements presented in this section are drawn from paper PMC6194023.
